Origin of the recorded values: PubChem BioAssay

Test system: glycogen synthase kinase-3 (GSK3A per assay name; protocol says GSK3B)
Assay: compounds binding glycogen synthase kinase-3 – biochemical, small-molecule microarray, 635 nm fluorescence, GSK3A, primary screen (AID 1103); note: the record names both GSK3A and GSK3B
Conditions: fluorescence 635 nm, higher = more signal
VALUE_TYPE: composite z-score
Enter a number only.

Using known records, supply composite z-score for NC(=O)NCC#Cc1ccc2c(c1)[C@]1(C(=O)N2)[C@H](c2ccccc2OCCO)N2[C@H](c3ccccc3)[C@H](c3ccccc3)OC(=O)[C@H]2[C@@H]1C(=O)O
-0.397

Item COCCOC(=O)N1C(=O)[C@@]2(c3cc(C#CC4(O)CCCCCC4)ccc31)[C@H](C(=O)N1CCc3cc(OC)c(OC)cc3C1)[C@H]1C(=O)O[C@H](c3ccccc3)[C@H](c3ccccc3)N1[C@@H]2c1ccc(OCCO)cc1 : provide composite z-score
1.3

Return reported composite z-score. Input compound: CCOC(=O)C[C@H]1[C@H](OC(=O)c2ccccc2-c2ccccc2)[C@@H](NC(=O)c2ccc3ccccc3n2)c2cc(OCCCO)ccc2N1C(=O)Cc1ccc(OC)cc1
0.0131

Note down composite z-score recorded for COCCCNC(=O)[C@@H]1c2ccccc2C(=O)N(C(C)C)[C@H]1c1ccc(CO)cc1
-0.291

Please give the documented composite z-score of O[C@@H](Cc1ccccc1)[C@@H](/C=C/C1CC1)N(CC#Cc1ccccc1)Cc1ccccc1Br
-0.689
